target: IL-23 (human, p19/p40 heterodimer) (Homo sapiens, UniProt Q9NPF7;P29460 SEQ:20-189,SEQ:23-328); assay: cell_activity; TransAM STAT3, PHA blasts; Table 35 gives 1 uM for full length; details: tags: R&D Systems
Sequence (Q9NPF7 20-189, chain 1 of 2): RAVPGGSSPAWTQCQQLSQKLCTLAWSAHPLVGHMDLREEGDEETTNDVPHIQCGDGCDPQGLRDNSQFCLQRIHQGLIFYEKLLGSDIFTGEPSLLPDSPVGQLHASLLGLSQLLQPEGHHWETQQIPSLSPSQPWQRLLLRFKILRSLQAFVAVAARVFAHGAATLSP
Sequence (P29460 23-328, chain 2 of 2): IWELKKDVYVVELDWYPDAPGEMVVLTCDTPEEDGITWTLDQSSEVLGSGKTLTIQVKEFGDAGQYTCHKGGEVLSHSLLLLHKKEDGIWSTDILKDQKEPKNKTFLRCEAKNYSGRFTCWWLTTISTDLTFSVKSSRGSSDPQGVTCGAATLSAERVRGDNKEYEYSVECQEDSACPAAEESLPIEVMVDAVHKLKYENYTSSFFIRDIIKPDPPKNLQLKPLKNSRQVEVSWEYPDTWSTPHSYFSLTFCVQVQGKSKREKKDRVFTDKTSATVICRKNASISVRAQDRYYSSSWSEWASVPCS
readout-label: IC50 (nM)

INSERT INTO results (binder, readout_label, meas_value) VALUES
  ('AMX84-A10 (ssRNA, 2''-F C and U, 2''-OH A and G) RNA: GGGAAAAGCGAAUCAUACACAAGAAGUUUUUUGUGCUCUGAGUACUCAGCGUCCGUAAGGGAUAUGCUCCGCCAGAGACCAACCGAGAA', 'IC50', 400);
